pIC50: −log10 of the molar value.
Entries below carry reported pIC50 on HPK1 kinase (Homo sapiens).
Sequence (Q92918 whole entry): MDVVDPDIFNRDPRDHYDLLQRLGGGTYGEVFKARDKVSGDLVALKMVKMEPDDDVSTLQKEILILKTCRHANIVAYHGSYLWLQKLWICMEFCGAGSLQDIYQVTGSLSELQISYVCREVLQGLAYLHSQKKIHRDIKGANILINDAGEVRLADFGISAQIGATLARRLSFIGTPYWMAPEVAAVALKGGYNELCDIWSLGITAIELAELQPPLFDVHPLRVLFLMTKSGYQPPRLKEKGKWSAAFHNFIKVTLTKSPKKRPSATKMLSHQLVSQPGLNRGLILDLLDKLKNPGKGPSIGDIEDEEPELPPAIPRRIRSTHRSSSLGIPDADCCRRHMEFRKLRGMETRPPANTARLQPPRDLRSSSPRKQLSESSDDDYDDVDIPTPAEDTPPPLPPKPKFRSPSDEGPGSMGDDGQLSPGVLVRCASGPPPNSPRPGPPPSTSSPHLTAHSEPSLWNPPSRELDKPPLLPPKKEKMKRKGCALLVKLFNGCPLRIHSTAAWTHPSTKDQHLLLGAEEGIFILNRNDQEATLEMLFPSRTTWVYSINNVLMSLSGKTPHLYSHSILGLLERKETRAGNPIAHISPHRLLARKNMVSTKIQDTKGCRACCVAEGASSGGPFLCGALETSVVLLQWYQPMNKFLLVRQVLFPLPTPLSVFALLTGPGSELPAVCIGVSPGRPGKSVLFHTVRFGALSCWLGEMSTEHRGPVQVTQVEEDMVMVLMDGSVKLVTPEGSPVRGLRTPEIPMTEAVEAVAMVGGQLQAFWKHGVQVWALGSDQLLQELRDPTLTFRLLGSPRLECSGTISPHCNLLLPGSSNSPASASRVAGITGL

See these solved cases before continuing.
[[record]]
molecule = "Cc1c[nH]c2ncc(-c3ccc(C4CCOCC4)c(C4COCCN4)c3F)cc12 (stereo not shown)"
measured_value = "7.00 to 8.00"

[[record]]
molecule = "Cc1c[nH]c2ncc(-c3ccc(C4CCOCC4)c(C4COCCN4)c3)c(F)c12 (stereo not shown)"
measured_value = "8.00 to 8.30"

[[record]]
molecule = "C[C@@H]1CCCN1Cc1nc(-c2cnc3[nH]cc(C4CC4)c3c2)ccc1C1CCOCC1"
measured_value = "8.30 to 11.00"

[[record]]
molecule = "Cc1c[nH]c2ncc(-c3ccc(C4CCOCC4)c(CN4CCCC4)n3)cc12"
measured_value = "7.00 to 8.00"

[[record]]
molecule = "FC(F)(F)C1(c2c[nH]c3ncc(-c4ccc(C5CCOCC5)c([C@@H]5COCCN5)n4)cc23)CC1"
measured_value = "8.30 to 11.00"

[[record]]
molecule = "Cc1cc(-c2cnc3[nH]cc(C)c3c2)cc(C2COCCN2)c1C1CCOCC1 (stereo not shown)"
measured_value = "8.30 to 11.00"

[[record]]
molecule = "Cc1c[nH]c2ncc(-c3ccc(C4CCOCC4)c(C4COCCN4)n3)c(F)c12 (stereo not shown)"
measured_value = "7.00 to 8.00"

[[record]]
molecule = "OCc1c[nH]c2ncc(-c3ccc(C4CCOCC4)c(C4COCCN4)n3)cc12 (stereo not shown)"
measured_value = "8.00 to 8.30"


# value lookup — system HPK1 kinase (Homo sapiens), readout pIC50, item Cc1cc(-c2cnc3[nH]cc(C)c3c2)cc(C2COCCN2)c1C1=CCOCC1 (stereo not shown)
8.30 to 11.00

# value lookup — system HPK1 kinase (Homo sapiens), readout pIC50, item `c1nc2[nH]cc(C3CC3)c2cc1-c1ccc(C2CCOCC2)c([C@@H]2COCCN2)n1`
8.30 to 11.00

FYI, the data here is from patent US20240294518A1.
